- procedure_summary: NCI Yeast Anticancer Drug Screen. Data for the wt1 strain (AID 149);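 note: 0% = growth of vehicle-treated wt1 cultures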
- measurement_conditions: S. cerevisiae wt1 strain (SPY 50644) growth inhibition; at 100.0 µM
About 79,000 compounds went through this panel and 15% of them were active in at least one assay; those are over-represented in the sample as a whole. Activity calls are given as the source filed them. Cut-off read from the data, not from the text of the source: active = growth inhibition above about 70%; inactive = the rest.
Can you answer with just one of these options? 1 for active, -1 for inactive

// known answers, use as guide
| molecule | discrete_label |
| --- | --- |
| O=C1NC(c2c(Cl)cccc2Cl)Nc2ccccc21 (configuration not stated) | 1 |
| CCC(c1ccc(O)cc1)C(CC)c1ccc(OCCN)cc1 (configuration not stated) | -1 |
| COc1ccc(N2CN(C)CSC2=S)cc1 | -1 |

## Task How was Nc1nc(F)nc2c1ncn2C1OC(COP(=O)(O)O)C(O)C1O (configuration not stated) classified in this test?
## Result -1

## Task Okay, and N#CSC1CCCCNC1=O (configuration not stated) ?
## Result 1

====

- procedure_summary: NCI Yeast Anticancer Drug Screen. Data for the bub3 strain (AID 167)
- measurement_conditions: S. cerevisiae bub3 mutant strain, at 5.0 µM (retest, dose inferred, filed as 0.5), stronger effect = higher value
The panel holds about 79,000 compounds, 15% with a hit somewhere; the sample as a whole holds those more often.
measured_parameter: growth inhibition (%)
I only need the number, in %, no unit after it.

| compound | growth inhibition [%] |
| --- | --- |
| O=C(Nc1cccc(C(F)(F)F)c1)Oc1ccc(Cl)cc1C(=O)c1ccccc1 | 15 |
| CC1=CCCC2C1(C)CCC(C)C2(C)Cc1cc(O)ccc1O (stereo unspecified) | 44 |
| Cc1c2cc[n+](CCN3CCCCC3)cc2c(C)c2c1[nH]c1ccc(O)cc12 | 16 |

## Task Name the reported growth inhibition value associated with the compound CC(=O)Oc1ccc(C(=O)c2ccccc2)c(O)c1
## Result 5

## Task Okay, and O=c1ccc(N=Nc2ccccc2)ccc1O ?
## Result 22

## Task Okay, and CCOC(=O)c1csc(Br)n1 ?
## Result -11

====

- procedure_summary: NCI Yeast Anticancer Drug Screen. Data for the rad52 strain (AID 147);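 note: 0% = growth of vehicle-treated control cultures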
- measurement_conditions: S. cerevisiae rad52 mutant growth inhibition; at 100.0 µM
About 79,000 compounds went through this panel and 15% of them were active in at least one assay; those are over-represented in the sample as a whole. Activity calls are given as the source filed them. Rule as the data show it: active = growth inhibition above about 70%; inactive = the rest.
Can you answer with just one of these options? active, inactive

// known answers, use as guide
| compound | discrete_label |
| --- | --- |
| O=C(NCCCCCN1CCC2(CCCCC2)CC1)C(C1CCCCC1)C1CCCCC1 | active |
| O=C1C=CC(=Nc2ccccc2)c2ccccc21 | active |
| Clc1c(Cl)c(Cl)c2n[nH]nc2c1Cl | inactive |
| O=C1C=CC(=O)N1c1ccc2c(c1)OCO2 | active |
| CCCCC(CC)C(=O)Oc1ccc(C(=O)c2ccccc2)c(O)c1 (configuration not stated) | active |
| Cc1ccc(S(=O)(=O)Nc2ccc3c(c2)C(O)c2ccccc2-3)cc1 (configuration not stated) | inactive |

## Task How was COCCCN(Cc1cc(OC)c(OC)c(OC)c1)C(=S)Nc1cccc(Cl)c1 classified in this test?
## Result inactive

## Task Okay, and Cc1ccc2occ/c(=N\Nc3ccccc3)c2c1 ?
## Result inactive

## Task Okay, and CCCCCCCCCCCc1nc(N)n[nH]1 ?
## Result active

## Task Okay, and N#C/C(=C1C=C/C(=N/O)c2ccccc2/1)c1ccccc1 ?
## Result active

## Task Okay, and O=Nn1c2ccccc2c2cc([N+](=O)[O-])ccc21 ?
## Result active

## Task Okay, and CCC(=O)Oc1ccc(/C=N/NC(N)=S)nc1 ?
## Result inactive

====

- procedure_summary: NCI Yeast Anticancer Drug Screen. Data for the mec2-1 strain (AID 157)
- measurement_conditions: S. cerevisiae mec2-1 strain, at 5.0 µM (retest, dose inferred, filed as 0.5), stronger effect = higher value
Compounds without any hit were thinned out: in the full panel of roughly 79,000, 15% have a hit.
measured_parameter: growth inhibition (%)
I only need the number, in %, no unit after it.

Answered examples (5):
| compound | growth inhibition / % |
| --- | --- |
| COc1cc(CNc2ccc(C(C)C)cc2)cc(OC)c1OC | -42 |
| Cc1cccc(/C=N/NC(=S)N(C)CCc2ccccn2)n1 | 81 |
| S=c1[nH]nc(-c2ccc(Cl)cc2)s1 | 72 |
| O=[N+]([O-])c1c(/C=N/Nc2ccccc2)oc(-c2ccc3c(c2)OCO3)c1-c1ccc2c(c1)OCO2 | 8 |
| CC1=CCCC2C1(C)CCC(C)C2(C)Cc1cc(O)ccc1O (configuration not stated) | 46 |

API: the following record is the query input.
## Task Name the reported growth inhibition value associated with the compound CCOC(=O)CNC(=O)c1[nH]cnc1/N=N/N(C)C
## Result -7

====

- procedure_summary: NCI Yeast Anticancer Drug Screen. Data for the rad50 strain (AID 155);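 note: 0% = growth of vehicle-only cultures of the same strain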
- measurement_conditions: S. cerevisiae rad50 strain growth inhibition; at 33.0 µM; stronger effect = higher value
About 79,000 compounds went through this panel and 15% of them were active in at least one assay; those are over-represented in the sample as a whole.
measured_parameter: growth inhibition (%)
I only need the number, in %, no unit after it.

| compound | growth inhibition (%) |
| --- | --- |
| CO[C@@]12[C@H](COC(N)=O)C3=C(C(=O)C(C)=C(N)C3=O)N1C[C@@H]1N[C@@H]12 | 76 |
| COc1ccc(/C=C2\SC(=S)N(C=C3C(=O)NC(=S)NC3=O)C2=O)cc1OC | 80 |
| COc1ccc(N=Nc2ccc3oc(=O)c(C(=O)Nc4ccccc4)cc3c2)cc1 | 96 |
| Cc1cc(Cl)nc2nc(Cl)c(N)cc12 | 8 |

API: the following record is the query input.
## Task Name the reported growth inhibition value associated with the compound CC1=CC2C(C(C)C)CC1C1C(=O)OC(=O)C21 (stereo not given)
## Result 24

====

- procedure_summary: NCI Yeast Anticancer Drug Screen. Data for the mlh1 strain (AID 171);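 note: 0% = growth of vehicle-treated control cultures of the same strain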
- measurement_conditions: S. cerevisiae mlh1 strain growth inhibition; at 100.0 µM; stronger effect = higher value
About 79,000 compounds went through this panel and 15% of them were active in at least one assay; those are over-represented in the sample as a whole.
measured_parameter: growth inhibition (%)
I only need the number, in %, no unit after it.

## Task Name the reported growth inhibition value associated with the compound CCCCCCCCCCCCCC(=O)OC(C)CCC1CCCO1 (centres undefined)
## Result 4

====

// reported growth inhibition for each item listed
- procedure_summary: NCI Yeast Anticancer Drug Screen. Data for the rad18 strain (AID 177)
- measurement_conditions: S. cerevisiae rad18 mutant growth inhibition; at 3.7 µM; stronger effect = higher value
This is part of a sample that, as a whole, favours compounds with a hit. Of some 79,000 tested, about 15% had one in any assay.
I only need the number, in %, no unit after it.

## Task Name the reported growth inhibition value associated with the compound Cc1cc(Cl)ccc1NC(=O)/C(Cl)=C1/Sc2ccccc2NC1=O
## Result 3

## Task Okay, and Nc1nc(N)c2c(n1)CCC(S(=O)(=O)c1ccc3ccccc3c1)C2 (configuration not stated) ?
## Result 1

====

- procedure_summary: NCI Yeast Anticancer Drug Screen. Data for the CLN2oe strain (AID 163);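 note: 0% = growth of vehicle-only control cultures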
- measurement_conditions: S. cerevisiae CLN2oe strain, at 1.2 µM, stronger effect = higher value
This is part of a sample that, as a whole, favours compounds with a hit. Of some 79,000 tested, about 15% had one in any assay. Residues, ends and D or L forms follow the SMILES beside them. *: point of attachment. CH2Cl = ClC*
measured_parameter: growth inhibition (%)
I only need the number, in %, no unit after it.

Answered examples (8):
| compound | quantity_unit | growth inhibition |
| --- | --- | --- |
| CC(=O)NC(CC(C)C)C(=O)NC(Cc1ccccc1)C(=O)CCl (stereo not drawn) (Ac-Leu-Phe-CH2Cl; configuration not given here) | % | -8 |
| Cc1onc(-c2ccccc2Cl)c1C1=N/C(=C/c2cc(Cl)cc(Cl)c2O)C(=O)O1 | % | -5 |
| CCCCC(=O)c1c(O)nc2sccn2c1=O | % | 9 |
| NNC(=S)Nc1cccc2ccccc12 | % | 5 |
| CN(C)c1ccc(/C=C/c2ccnc3ccccc23)cc1N | % | -1 |
| CCCCCC(=O)c1ccc(O)cc1O | % | -3 |
| COCCCN(Cc1cc(OC)c(OC)c(OC)c1)C(=S)Nc1cccc(Cl)c1 | % | 0 |
| Nc1nc(N)c2cc(Sc3ccc4ccccc4c3)ccc2n1 | % | 2 |

## Task Name the reported growth inhibition value associated with the compound CC(=O)O[C@H]1C(=O)[C@@]2(C)[C@H]([C@H](OC(=O)c3ccccc3)[C@]3(O)C[C@H](OC(=O)[C@H](O)[C@@H](NC(=O)c4ccccc4)c4ccccc4)C(C)=C1C3(C)C)[C@]1(OC(C)=O)CO[C@@H]1C[C@@H]2O
## Result -4

## Task Okay, and CC(C)c1cccc(O)c(=O)c1 ?
## Result 3

## Task Okay, and S=C(S)NCC1CCC(CNC(=S)S)CC1 (centres undefined) ?
## Result 0

## Task Okay, and O=NN(CCCl)C(=O)NC1CCCCC1 ?
## Result -3

## Task Okay, and C/C=C/[P+](c1ccccc1)(c1ccccc1)c1ccccc1 ?
## Result 16
